system: Eubacterium saburreum; experiment: Antimicrobial activity against Eubacterium saburreum by Wadsworth agar dilution method; type: functional; conditions: Lachnoanaerobaculum saburreum
MIC90 values by entry
Write it as a number; the unit µg/mL goes unstated.

[ask] # query: MIC90 of entry NC[C@@H]1O[C@H](O[C@H]2[C@@H](O)[C@H](O[C@@H]3[C@@H](O)[C@H](N)C[C@H](N)[C@H]3O[C@H]3O[C@H](CN)[C@@H](O)[C@H](O)[C@H]3N)O[C@@H]2CO)[C@H](N)[C@@H](O)[C@@H]1O [FRAMYCETIN]
[reply] 1020

[ask] Entry CC(=O)Oc1ccccc1C(=O)Nc1ncc([N+](=O)[O-])s1 [NITAZOXANIDE] : reported MIC90 = ?
[reply] 32

[ask] Field request: MIC90 | item: CN[C@H](CC(C)C)C(=O)N[C@H]1C(=O)N[C@@H](CC(N)=O)C(=O)N[C@H]2C(=O)N[C@H]3C(=O)N[C@H](C(=O)N[C@H](C(=O)O)c4cc(O)cc(O)c4-c4cc3ccc4O)[C@H](O)c3ccc(c(Cl)c3)Oc3cc2cc(c3O[C@@H]2O[C@H](CO)[C@@H](O)[C@H](O)[C@H]2O[C@H]2C[C@](C)(N)[C@H](O)[C@H](C)O2)Oc2ccc(cc2Cl)[C@H]1O [VANCOMYCIN]
[reply] 64
